The following compounds are shown together with reported pIC50 values.
MEASURED TARGET: CDK9/CycTI (Homo sapiens, UniProt P50750)
Sequence (P50750 whole entry): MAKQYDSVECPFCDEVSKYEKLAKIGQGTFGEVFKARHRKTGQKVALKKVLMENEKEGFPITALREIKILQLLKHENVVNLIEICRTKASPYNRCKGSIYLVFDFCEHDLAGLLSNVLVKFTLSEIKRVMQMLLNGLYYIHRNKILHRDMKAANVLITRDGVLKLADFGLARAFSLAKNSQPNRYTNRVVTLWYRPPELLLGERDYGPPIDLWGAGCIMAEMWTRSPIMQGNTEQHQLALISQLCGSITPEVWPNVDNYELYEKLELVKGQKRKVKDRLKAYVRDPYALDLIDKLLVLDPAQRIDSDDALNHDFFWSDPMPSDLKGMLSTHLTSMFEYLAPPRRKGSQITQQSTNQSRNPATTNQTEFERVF
Sequence (O60563 whole entry partner): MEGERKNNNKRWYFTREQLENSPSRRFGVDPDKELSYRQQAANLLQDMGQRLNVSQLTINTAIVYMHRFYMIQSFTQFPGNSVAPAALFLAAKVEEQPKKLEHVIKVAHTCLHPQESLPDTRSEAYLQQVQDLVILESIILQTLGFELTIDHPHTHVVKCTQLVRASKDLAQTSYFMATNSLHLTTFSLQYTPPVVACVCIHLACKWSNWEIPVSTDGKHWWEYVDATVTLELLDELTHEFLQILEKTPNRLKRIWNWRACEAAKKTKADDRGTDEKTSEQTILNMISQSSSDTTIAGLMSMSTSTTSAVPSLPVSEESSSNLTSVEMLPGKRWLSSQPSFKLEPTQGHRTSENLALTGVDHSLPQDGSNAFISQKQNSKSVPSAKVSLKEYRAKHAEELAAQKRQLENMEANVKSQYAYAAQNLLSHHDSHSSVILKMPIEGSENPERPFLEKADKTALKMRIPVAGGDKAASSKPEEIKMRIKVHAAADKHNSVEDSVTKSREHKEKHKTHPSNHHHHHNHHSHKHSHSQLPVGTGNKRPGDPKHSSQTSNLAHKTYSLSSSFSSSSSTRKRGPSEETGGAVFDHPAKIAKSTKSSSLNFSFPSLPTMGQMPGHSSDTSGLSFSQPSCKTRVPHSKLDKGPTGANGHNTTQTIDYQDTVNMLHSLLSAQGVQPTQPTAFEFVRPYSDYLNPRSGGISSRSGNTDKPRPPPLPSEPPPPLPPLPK
RUN DESCRIPTION: In vitro kinase assay (ADP-Glo Kinase Assay Kit), CDK9/CycTI
EXPERIMENTAL SETUP: 30 ng CDK9/CycTI, 30 μM CDKtide, 10 μM ATP, 2 hours at room temperature; 8 to 10-point dose response (Tier2); read-out: IC50 Score
Procedure: In vitro kinase assay was performed in white, 384-low volume plates in 5 μl reaction volume consisting of 30 ng CDK9/CycTI (Carna biosciences #04-110), 30 μM CDKtide (Signalchem #C06-58) and 10 μM ATP made in reaction buffer (40 mM Tris, pH 7.5; 20 mM MgCl2; 0.1 mg/ml BSA; 50 μM DTT) at 1 μM & 10 μM compound concentration for Tier1 assay and 8 to 10-point dose response curve for Tier2 assay. […]
pIC50: −log10 of the molar value.

The cases that follow already have their pIC50 on record.
> print(dat)
                                   compound  recorded.measurement
1  O=C(Nc1nc2ccc3cc(F)ccc3c2s1)[C@H]1CCCCN1          4.70 to 6.00
2  CC(=O)N1CCOC[C@@H]1C(=O)Nc1nc2ccc3cc(F)ccc3c2s1          7.00 to 9.00
3  CC(=O)N1CCCC[C@H]1C(=O)Nc1nc2ccc3cc(F)ccc3c2s1 [Compound 27]          7.00 to 9.00

Exam item: State its pIC50 on CDK9/CycTI (Homo sapiens, UniProt P50750): O=C(Nc1nc2ccc3cc(F)ccc3c2s1)[C@H]1CC[C@@H](N2CCOCC2)C1
Marked response: 7.00 to 9.00

Exam item: For CC(=O)N[C@@H]1CCC[C@@H](C(=O)Nc2nc3ccc4cc(F)ccc4c3s2)C1 then?
Marked response: 6.00 to 6.30

Exam item: For O=C(Nc1nc2ccc3cc(F)ccc3c2s1)C1CNC1 then?
Marked response: 6.30 to 7.00

Exam item: For CC(=O)N1CCC(C(=O)Nc2nc3ccc4cc(F)ccc4c3s2)C1 (racemic) [Compound 55] then?
Marked response: 7.00 to 9.00

Exam item: For CC(=O)N1CCNCC1C(=O)Nc1nc2ccc3cc(F)ccc3c2s1 (single isomer, unassigned) [Compound 18-b] then?
Marked response: 4.70 to 6.00

Exam item: For CN1CCC(C(=O)Nc2nc3ccc4cc(F)ccc4c3s2)C1 (single isomer, unassigned) [Compound 92] then?
Marked response: 7.00 to 9.00

Exam item: For CC(=O)N1CCN(C)CC1C(=O)Nc1nc2ccc3cc(F)ccc3c2s1 (single isomer, unassigned) [Compound 32] then?
Marked response: 4.70 to 6.00

Exam item: For CC(=O)Nc1nc2ccc3cc(F)ccc3c2s1 then?
Marked response: 6.30 to 7.00

Value source: patent US20220281863A1
